# test-system: T1, recombinant human ZNRF3 extracellular domain (human, UniProt Q9ULT6 56-219)
# T1 construct: extracellular domain; also called huZNRF3; human ZNRF3 ECD
# T1 sequence (looked up): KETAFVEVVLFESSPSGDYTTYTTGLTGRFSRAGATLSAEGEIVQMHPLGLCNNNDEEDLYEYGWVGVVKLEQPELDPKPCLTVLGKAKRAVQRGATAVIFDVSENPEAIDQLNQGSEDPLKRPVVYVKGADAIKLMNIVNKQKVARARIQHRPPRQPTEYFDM
# procedure-summary: SPR Biacore 8K; antibody captured on Protein A; ZNRF3 ECD analyte; 25 C
# Description: Antibodies were screened for binding to recombinant human RNF43 and ZNRF3 ECDs using a Biacore® 8 k instrument (GE Life Sciences). […] Binding of recombinant human RNF43 and ZNRF3 extracellular domain to the captured antibodies was analyzed at 25° C. using a single cycle kinetics method with a flow rate of 30 μl/minute, a contact time of 180 seconds and a dissociation time of 600 seconds. […] Data were evaluated using Biacore 8K Evaluation software (GE Life Sciences). […]
Just so you know, the groups by Kd go like this: low = under 0.1 nM, mid = from 0.1 nM up to 0.6 nM, high = 0.6 nM and over

1) ZNRF3-253 (antibody, V domains shown, Rat clone; VH/VL only) VH: EVQLVESGGGLVQPERSMKLSCAASGFTFSNYGMAWVRQAPTKGLEWVATINSDGSGTYYRGSVKGRFTISRDNAKSTLYLQMNSLRSDDTATYYCTRGRMLRIISFFDYWGQGVMVTVSS VL: DIQMTQSPASLSASLGETVSIECLASEDIANDLAWYQQKSGKSPQVLIYAASRVQDGVPSRFSGSGSGTRYSLKITDMQPEDVADYFCQQSYGFPLTFGSGTKLEIK	mid
2) ZNRF3-231 (antibody, V domains shown, Rat clone; VH/VL only) VH: EVQLVESGGGLVQPGESLKLSCSASGFTFSNYGMHWIRQVPGKGLDWVAYISNSGGSLYADAVKGRFTISRDNAKNTLYLELNSLKSEDTAIYHCARGYSYPGPYWGQGTLVTVSS VL: DIQVTQSPSSLLASLGERVTITCQTGQSINNYLNWYQQRPGQAPLLLIYFATSLQTGVPSRFSGQYSGRSFTLTITSLEPEDIANYFCLQHYSPPYTFGAGTKLELR	low
3) ZNRF3-237 (antibody, V domains shown, Rat clone; VH/VL only) VH: QIQLVQSGPELKKPGESVKISCKASGYTFTDYAMHWVKQVPGKGLKWMGWINTYTGKPTYADDFKGRFVFSLEASASTVNLQISNLKNEDTANVFCARGGLLSRGWFAYWGQGTLVTVSS VL: DIVMTQTPVSLSVSLGGQVSISCRSSQSFVHSDGNSYLSWYLQKPGQSPQLLIYEVSNRLSGVPDRFSGSGSGTDFTLKISRVEHDDLGVYYCGQASKIPLTFGSGTKLEIK	high

Query: Place this binder in its band: ZNRF3-333 (antibody, V domains shown, Rabbit clone; VH/VL only) VH: QSLEESGGGLVQPEGSLTLTCTASGIDFSARSYMCWVRQAPGKGLEWVACIYTGSSGSTYYANWAKGRFTISKTSSTTVTLRMTSLTAADTASYFCARGAYVGYGFAAYFTLWGPGTLVTVSS VL: DIVMTQTPASVEAAVGGTVTINCQASQSISSYLAWYQQKPGQPPKLLIYYASNLESGVPSRFKGSGSGTQFTLTISDLECADAATYYCQAYYSSITGWAFGGGTEVVVK
Response: high

Query: Would you mind sorting ZNRF3-90 (antibody, V domains shown, Rat clone; VH/VL only) VH: EVQLVESGGGLVQPGRSMKLSCAASGFTFSNYYMAWVRQAPRKGLEWVASITTGGTNTYYRDSVRGRFTISRDNAKSTLYLQMDSLRSEETATYYCARHSGGLIRARGHYFHYWGQGVMVTVSS VL: DIQMTQSPASLSASLGEIVSIECLASEGISNDLAWYQQKSGKSPQVLVYAASRLQDGVPSRFSGSGSGTRYSLKISGMQPEDEADYFCQQSYTYPYTFGAGTKLELK into the appropriate category?
Response: mid

Query: Determine which band this binder sits in: ZNRF3-254 (antibody, V domains shown, Rat clone; VH/VL only) VH: EVQLVESGGGLVQPERSMKLSCAASGFTFNNYGMAWVRQTPTKGLEWVATINSDGSGTHYRGSVKGRFTISRDNAKGTLYLQMHNLRSDDTATYYCARGRILRIITYFDSWGQGVVVTVSS VL: DIQMTQSPASLSASLGESVSIECLASEDIANDLAWYQQKSGRSPQVLIHAASRVQDGVPSRFSGSGSGTRYSLKITDMQPEDVADYFCQQSYGFPLTFGSGTKLEIK
Response: mid

Query: Classify this binder: ZNRF3-17 (antibody, V domains shown, Rat clone; VH/VL only) VH: EVQLVESGGGLVQPGGSLKLSCAASGFTFSNYDMAWVRQAPTKGLEWVASISTGGGKTYYRDSVKGRLTISRDNAKNTQYLQMDSLRSEDTATYYCARLGPAYSGEWFAYWGQGTLVTVSS VL: DTVLTQSPALAVSPGERVTISCGASEGVNTRMHWYQQRSGQQPKLLIYGSSNLDSGVPDRFSGSGSGTDFTLTIDPVEAKDAATYFCQQSWNVPNTFGAGTKLELK
Response: low

Query: // bin(item) where item = ZNRF3-287 (antibody, V domains shown, Rat clone; VH/VL only) VH: EVQLVGSGGGLVQPGRSLKISCAASGFTFSYYGMAWVRQAPTRGLEWVATITYNGSKSYYRDSVKGRFTISREYAKSTLYLQMDDLTSEDTATYFCARRTTGMLFDYWGQGVLVTVSS VL: QAVLTQPNSVSMSLGSTVKLSCTLNSGNIENNFVHWYQQYEGRSPTTMIYNDDKRPDGVPDRFSGSIDSSSNSAFLTINNVEIGDEAIYFCHSFVSSIHIFGGGTKLTVL
Response: mid
